From: patent US6887890B2

- Tested on: Mpl-expressing Ba/F3 cell line (human mpl gene)
- Assay overview: Measurement of thrombopoietin (TPO) activity: viable cell count of Mpl-expressing Ba/F3 cell line (Cell Count Reagent SF, absorbance 450 nm)
- Type: cell-based
- Experimental parameters: concentration corresponding to the maximum TPO activity value
So I've got a bunch of compounds here, and I need their Concentration values.
Answer format: numeric, µM implied, no suffix.

Measured Concentration, Cc1[nH]c2ccccc2c1CC(=O)N[C@@H](CCCCN(C)C)C(=O)Nc1ccc(C(c2ccc(NC(=O)[C@H](CCCCN(C)C)NC(=O)Cc3c(C)[nH]c4ccccc34)cc2)c2ccc(NC(=O)[C@H](CCCCN(C)C)NC(=O)Cc3c(C)[nH]c4ccccc34)cc2)cc1 : 25

Consider N[C@H](CCCCNC(=O)Cc1ccccc1)C(=O)Nc1ccc(C(c2ccc(NC(=O)[C@H](N)CCCCNC(=O)Cc3ccccc3)cc2)c2ccc(NC(=O)[C@H](N)CCCCNC(=O)Cc3ccccc3)cc2)cc1.O=C(O)C(F)(F)F . Its measured Concentration is 25

The measured Concentration associated with CCc1[nH]c2ccccc2c1CC(=O)N[C@H](CCCCN)C(=O)Nc1ccc(C(c2ccc(NC(=O)[C@@H](CCCCN)NC(=O)Cc3c(CC)[nH]c4ccccc34)cc2)c2ccc(NC(=O)[C@@H](CCCCN)NC(=O)Cc3c(CC)[nH]c4ccccc34)cc2)cc1.Cl reads 25

// recorded Concentration for Cl.N=C(N)NCCC[C@@H](NC(=O)Cc1ccsc1)C(=O)Nc1ccc(C(c2ccc(NC(=O)[C@@H](CCCNC(=N)N)NC(=O)Cc3ccsc3)cc2)c2ccc(NC(=O)[C@@H](CCCNC(=N)N)NC(=O)Cc3ccsc3)cc2)cc1 (stereo partly shown) : 12.5

Entry under test: Cc1[nH]c2ccccc2c1CC(=O)N[C@@H](CCN)C(=O)Nc1ccc(C(c2ccc(NC(=O)[C@H](CCN)NC(=O)Cc3c(C)[nH]c4ccccc34)cc2)c2ccc(NC(=O)[C@H](CCN)NC(=O)Cc3c(C)[nH]c4ccccc34)cc2)cc1.O=C(O)C(F)(F)F . Its Concentration was 50

For this compound ( Cl.NCCCC[C@@H](NC(=O)c1cccc2[nH]ccc12)C(=O)Nc1ccc(C(c2ccc(NC(=O)[C@@H](CCCCN)NC(=O)c3cccc4[nH]ccc34)cc2)c2ccc(NC(=O)[C@@H](CCCCN)NC(=O)c3cccc4[nH]ccc34)cc2)cc1 ), measured Concentration is 25

So for Cl.NCCCC[C@@H](NC(=O)Cc1ccncc1)C(=O)Nc1ccc(C(c2ccc(NC(=O)[C@@H](CCCCN)NC(=O)Cc3ccncc3)cc2)c2ccc(NC(=O)[C@@H](CCCCN)NC(=O)Cc3ccncc3)cc2)cc1 , the logged Concentration turned out to be 100

compound Cl.NCCCSC[C@H](NC(=O)Cc1c[nH]c2ccccc12)C(=O)Nc1ccc(C(c2ccc(NC(=O)[C@H](CSCCCN)NC(=O)Cc3c[nH]c4ccccc34)cc2)c2ccc(NC(=O)[C@H](CSCCCN)NC(=O)Cc3c[nH]c4ccccc34)cc2)cc1 , Concentration observed: 50

Reported Concentration of Cl.NCCCC[C@@H](NC(=O)[C@H](N)Cc1c[nH]c2ccccc12)C(=O)Nc1ccc(C(c2ccc(NC(=O)[C@@H](CCCCN)NC(=O)[C@H](N)Cc3c[nH]c4ccccc34)cc2)c2ccc(NC(=O)[C@@H](CCCCN)NC(=O)[C@H](N)Cc3c[nH]c4ccccc34)cc2)cc1 : 25

Entry under test: NCCCC[C@H](NC(=O)c1cccc2cc(O)ccc12)C(=O)Nc1ccc(C(c2ccc(NC(=O)[C@H](CCCCN)NC(=O)c3cccc4cc(O)ccc34)cc2)c2ccc(NC(=O)[C@H](CCCCN)NC(=O)c3cccc4cc(O)ccc34)cc2)cc1.O=C(O)C(F)(F)F . Its Concentration was 25

For record Cl.NCCCC[C@@H](NC(=O)Cc1ccccn1)C(=O)Nc1ccc(C(c2ccc(NC(=O)[C@@H](CCCCN)NC(=O)Cc3ccccn3)cc2)c2ccc(NC(=O)[C@@H](CCCCN)NC(=O)Cc3ccccn3)cc2)cc1 the listed Concentration is 100

The compound listed as Cl.NCCCC[C@@H](NC(=O)[C@H](N)Cc1ccc(O)cc1)C(=O)Nc1ccc(C(c2ccc(NC(=O)[C@@H](CCCCN)NC(=O)[C@H](N)Cc3ccc(O)cc3)cc2)c2ccc(NC(=O)[C@@H](CCCCN)NC(=O)[C@H](N)Cc3ccc(O)cc3)cc2)cc1 shows Concentration equal to 100

Field Concentration (entry NCC[C@H](NC(=O)Cc1c[nH]c2ccccc12)C(=O)Nc1ccc(C(c2ccc(NC(=O)[C@H](CCN)NC(=O)Cc3c[nH]c4ccccc34)cc2)c2ccc(NC(=O)[C@H](CCN)NC(=O)Cc3c[nH]c4ccccc34)cc2)cc1.O=C(O)C(F)(F)F ) reads 50

The reported Concentration of the compound COc1ccc2[nH]c(C)c(CC(=O)N[C@@H](CCN)C(=O)Nc3ccc(C(c4ccc(NC(=O)[C@H](CCN)NC(=O)Cc5c(C)[nH]c6ccc(OC)cc56)cc4)c4ccc(NC(=O)[C@H](CCN)NC(=O)Cc5c(C)[nH]c6ccc(OC)cc56)cc4)cc3)c2c1.O=C(O)C(F)(F)F was 50

Per the records, this compound ( Cl.NCCCC[C@@H](NC(=O)Cc1cccs1)C(=O)Nc1ccc(C(c2ccc(NC(=O)[C@@H](CCCCN)NC(=O)Cc3cccs3)cc2)c2ccc(NC(=O)[C@@H](CCCCN)NC(=O)Cc3cccs3)cc2)cc1 ) has Concentration equal to 25

The reported value for NCCCC[C@@H](NC(=O)Cc1ccc(O)c(O)c1)C(=O)Nc1ccc(C(c2ccc(NC(=O)[C@@H](CCCCN)NC(=O)Cc3ccc(O)c(O)c3)cc2)c2ccc(NC(=O)[C@@H](CCCCN)NC(=O)Cc3ccc(O)c(O)c3)cc2)cc1.O=C(O)C(F)(F)F in terms of Concentration is 100
